- Target or test system: AhR (Homo sapiens, UniProt P35869)
- Construct: expressed in transfected cells; host or cells: HepG2
- Sequence (P35869 11-848): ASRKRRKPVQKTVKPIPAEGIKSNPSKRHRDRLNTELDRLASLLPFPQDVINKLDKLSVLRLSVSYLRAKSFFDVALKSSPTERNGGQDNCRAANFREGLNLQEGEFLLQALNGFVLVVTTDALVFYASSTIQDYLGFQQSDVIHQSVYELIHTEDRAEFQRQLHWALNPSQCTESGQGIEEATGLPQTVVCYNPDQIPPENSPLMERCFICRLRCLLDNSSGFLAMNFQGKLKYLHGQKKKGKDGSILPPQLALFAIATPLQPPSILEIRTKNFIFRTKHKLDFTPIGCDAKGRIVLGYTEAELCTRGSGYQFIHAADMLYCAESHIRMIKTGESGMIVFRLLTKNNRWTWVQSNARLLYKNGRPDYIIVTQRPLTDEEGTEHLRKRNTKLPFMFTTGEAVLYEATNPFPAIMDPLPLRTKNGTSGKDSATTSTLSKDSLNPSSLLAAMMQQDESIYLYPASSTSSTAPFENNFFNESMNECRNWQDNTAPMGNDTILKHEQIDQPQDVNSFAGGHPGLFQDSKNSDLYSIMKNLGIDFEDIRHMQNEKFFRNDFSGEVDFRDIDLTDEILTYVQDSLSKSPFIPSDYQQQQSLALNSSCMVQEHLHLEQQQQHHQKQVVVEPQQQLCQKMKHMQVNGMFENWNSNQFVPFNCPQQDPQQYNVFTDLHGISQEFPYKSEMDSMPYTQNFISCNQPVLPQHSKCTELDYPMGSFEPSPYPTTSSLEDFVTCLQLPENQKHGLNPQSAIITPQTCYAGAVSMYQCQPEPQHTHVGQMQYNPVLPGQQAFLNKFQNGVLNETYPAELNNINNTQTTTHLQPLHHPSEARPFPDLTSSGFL
- Experiment notes: AhR agonism luciferase reporter gene assay in transfected HepG2 cells
- Type: cell-based
- Applied conditions: drug concentration 1 μM; 16 h; ratio of treatment group to blank
- Experimental: When the cell confluence reached 80%, the culture medium was replaced with a fresh one, and the transfection working solution was added for transfection overnight. […]
Class true: AhR receptor agonistic fold at least 10 fold. Class false: AhR receptor agonistic fold below 10 fold.

Compound	Class
Oc1cc(/C=C/c2ccc(F)c(F)c2)cc(O)c1C1CCCCC1 [Compound 11]	true
Oc1cc(/C=C/c2ccccc2Cl)cc(O)c1C1CCCCC1 [Compound 9]	true
Oc1cc(/C=C/c2ccc(Cl)cc2)cc(O)c1C1CCCC1 [Compound 3]	true
Oc1cc(/C=C/c2cccc(Cl)c2)cc(O)c1C1CCCCC1 [Compound 10]	true
Oc1cc(/C=C/c2ccc(F)cc2)cc(O)c1C1CCCC1 [Compound 2]	true
Oc1cc(/C=C/c2ccc(Br)cc2)cc(O)c1C1CCCCC1 [Compound 8]	true

Determine whether this compound has AhR receptor agonistic fold no lower than 10 fold: Oc1cc(/C=C/c2ccc(F)c(F)c2F)cc(O)c1C1CCCCC1 [Compound 14]
true

# bool: AhR receptor agonistic fold of CC(C)c1c(O)cc(/C=C/c2ccc(F)cc2)cc1O [Reference 2#, reference compound] >= 10 fold
false

Hi, just wondering whether CC(C)c1c(O)cc(/C=C/c2ccccc2)cc1O [Reference 1#, Benvitimod, reference compound] shows AhR receptor agonistic fold of 10 fold or higher.
true

Check if AhR receptor agonistic fold >= 10 fold (inclusive). Item: Oc1cc(/C=C/c2ccc(Cl)cc2)cc(O)c1C1CCCCC1 [Compound 7]
false

Record Oc1cc(/C=C/c2cccc(F)c2)cc(O)c1C1CCCC1 [Compound 16] ; criterion: AhR receptor agonistic fold no lower than 10 fold. Met?
true

Could you please find out whether O=Cc1c2[nH]c3ccccc3c2cc2[nH]c3ccccc3c12 [Reference 3#, FICZ, reference compound] has AhR receptor agonistic fold that meets 10 fold or exceeds it?
false

Identify whether the reported AhR receptor agonistic fold of the following compound is 10 fold or greater: Oc1cc(/C=C/c2cccc(F)c2F)cc(O)c1C1CCCCC1 [Compound 12]
true

State whether the measured AhR receptor agonistic fold reaches 10 fold, counting equality as reaching it, for Oc1cc(/C=C/c2cc(F)c(F)c(F)c2)cc(O)c1C1CCCCC1 [Compound 15]
true

# bool: AhR receptor agonistic fold of Oc1cc(/C=C/c2ccc(Br)cc2)cc(O)c1C1CCCC1 [Compound 4] >= 10 fold
true

Tell me whether AhR receptor agonistic fold is at least 10 fold here: Oc1cc(/C=C/c2cc(F)cc(F)c2)cc(O)c1C1CCCCC1 [Compound 13]
true

Hi, just wondering whether Oc1cc(/C=C/c2ccccc2)cc(O)c1C1CCCC1 [Compound 1] shows AhR receptor agonistic fold of 10 fold or higher.
true

// inclusive: AhR receptor agonistic fold at least 10 fold? input: Oc1cc(/C=C/c2ccc(F)cc2)cc(O)c1C1CCCCC1 [Compound 6]
true

Kindly determine if AhR receptor agonistic fold recorded for Oc1cc(/C=C/c2ccccc2)cc(O)c1C1CCCCC1 [Compound 5] is above or exactly 10 fold.
true
